# Measured Target: human recombinant norepinephrine (NE) uptake site (Homo sapiens, UniProt P23975)
# Sequence (P23975 whole entry): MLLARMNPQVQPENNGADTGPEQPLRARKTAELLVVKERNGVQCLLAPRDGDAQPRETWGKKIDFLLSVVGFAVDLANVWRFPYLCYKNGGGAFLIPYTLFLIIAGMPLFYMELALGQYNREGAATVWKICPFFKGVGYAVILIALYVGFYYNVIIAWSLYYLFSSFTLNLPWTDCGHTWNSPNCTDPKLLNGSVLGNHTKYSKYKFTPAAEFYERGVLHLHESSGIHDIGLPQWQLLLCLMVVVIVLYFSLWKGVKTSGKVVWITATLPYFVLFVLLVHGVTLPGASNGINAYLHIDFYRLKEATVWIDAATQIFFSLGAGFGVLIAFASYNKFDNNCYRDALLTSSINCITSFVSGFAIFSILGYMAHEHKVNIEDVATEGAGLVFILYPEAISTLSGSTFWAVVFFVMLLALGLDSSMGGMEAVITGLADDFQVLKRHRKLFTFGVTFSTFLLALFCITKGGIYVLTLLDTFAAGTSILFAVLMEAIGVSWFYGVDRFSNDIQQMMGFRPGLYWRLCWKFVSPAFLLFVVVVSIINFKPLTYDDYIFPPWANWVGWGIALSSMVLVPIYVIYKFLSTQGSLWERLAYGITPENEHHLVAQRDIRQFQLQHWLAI
# Experiment: Binding at the norepinephrine (NE) uptake site
Property Label: pIC50
The meaning of pIC50 here: minus log10 of the concentration in molar units.

Which pIC50 reading was recorded for the molecule CNC(CC(C)C)C1(c2ccc(Cl)cc2)CCC1 (racemic) [(R/S)-desMe] ?
8.00

Which pIC50 reading was recorded for the molecule CN[C@@H](CC(C)C)C1(c2ccc(Cl)cc2)CCC1 [(S)-desMe] ?
6.06

====

# Measured Target: nonselective muscarinic receptor
# Experiment: Binding at the nonselective muscarinic receptor
# Details: rat cerebral cortex
Task for the reader: assign each of the following molecules its reported pIC50.
The meaning of pIC50 here: minus log10 of the concentration in molar units.

Which pIC50 reading was recorded for the molecule CN[C@@H](CC(C)C)C1(c2ccc(Cl)cc2)CCC1 [(S)-desMe] ?
6.18

Which pIC50 reading was recorded for the molecule CN1[C@@H]2CC[C@H]1C[C@@H](OC(=O)C(CO)c1ccccc1)C2 (stereo partly drawn) [Atropine, reference compound] ?
9.51

Which pIC50 reading was recorded for the molecule CNC(CC(C)C)C1(c2ccc(Cl)cc2)CCC1 (racemic) [(R/S)-desMe] ?
5.93
